Reference source for all entries: paper PMC11725774

- TARGET OR TEST SYSTEM: JAK2 (Homo sapiens)
- Sequence (O60674 whole entry): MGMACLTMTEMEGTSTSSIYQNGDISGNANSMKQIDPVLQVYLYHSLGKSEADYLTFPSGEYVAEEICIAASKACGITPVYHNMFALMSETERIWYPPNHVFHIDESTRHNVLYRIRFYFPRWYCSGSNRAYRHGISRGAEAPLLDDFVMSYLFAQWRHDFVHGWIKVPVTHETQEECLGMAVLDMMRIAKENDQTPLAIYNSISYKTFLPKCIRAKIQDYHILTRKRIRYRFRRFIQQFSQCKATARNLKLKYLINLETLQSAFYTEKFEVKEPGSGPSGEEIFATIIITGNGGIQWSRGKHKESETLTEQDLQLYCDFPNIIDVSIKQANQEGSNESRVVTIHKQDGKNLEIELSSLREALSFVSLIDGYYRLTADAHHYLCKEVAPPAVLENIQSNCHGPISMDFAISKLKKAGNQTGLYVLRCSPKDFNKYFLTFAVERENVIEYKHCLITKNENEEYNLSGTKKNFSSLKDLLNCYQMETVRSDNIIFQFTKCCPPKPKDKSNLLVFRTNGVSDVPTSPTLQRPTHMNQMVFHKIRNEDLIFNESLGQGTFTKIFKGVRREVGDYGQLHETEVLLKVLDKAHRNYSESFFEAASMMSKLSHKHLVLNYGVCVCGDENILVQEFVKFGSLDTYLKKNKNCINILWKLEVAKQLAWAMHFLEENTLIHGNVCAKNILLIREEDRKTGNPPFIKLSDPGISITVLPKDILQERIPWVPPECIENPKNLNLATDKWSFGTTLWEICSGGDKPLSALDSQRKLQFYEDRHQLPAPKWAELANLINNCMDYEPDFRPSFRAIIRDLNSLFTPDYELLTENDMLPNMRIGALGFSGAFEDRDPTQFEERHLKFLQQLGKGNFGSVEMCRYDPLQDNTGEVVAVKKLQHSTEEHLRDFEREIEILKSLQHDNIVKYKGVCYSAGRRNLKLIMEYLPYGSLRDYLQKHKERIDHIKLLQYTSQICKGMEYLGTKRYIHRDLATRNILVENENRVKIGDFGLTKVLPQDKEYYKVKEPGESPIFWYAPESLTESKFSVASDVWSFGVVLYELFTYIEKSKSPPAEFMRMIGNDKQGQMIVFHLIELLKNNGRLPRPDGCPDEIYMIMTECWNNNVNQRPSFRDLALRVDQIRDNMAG
- PROTOCOL DESCRIPTION: Broad kinase inhibition screen, recombinant kinase
- STATED CONDITIONS: broad kinase inhibition screens
PROPERTY MEASURED: pIC50
Scale for pIC50: -log10 of concentration given in mol/L; no unit attached.

Notebook: "Cc1ccc2c(-c3nc(Nc4cc(CN5C[C@@H](C)N[C@@H](C)C5)cc(C5CC5)c4)ncc3Cl)c[nH]c2c1" , pIC50 read as 8.20

* * *

- PROTOCOL DESCRIPTION: Pharmacokinetics and tissue distribution in mice
- Assay type: in vivo
- STATED CONDITIONS: mouse, plasma; mice, oral doses of 1, 3, 10, and 30 mg/kg
PROPERTY MEASURED: bioavailability

Notebook: Cc1ccc2c(-c3nc(Nc4cc(CN5C[C@@H](C)N[C@@H](C)C5)cc(C5CC5)c4)ncc3Cl)c[nH]c2c1 [TUS, Tuspetinib] , bioavailability read as 21.4 to 47.2%

* * *

- TARGET OR TEST SYSTEM: CYP2C9 (Homo sapiens, UniProt P11712)
- Sequence (P11712 whole entry): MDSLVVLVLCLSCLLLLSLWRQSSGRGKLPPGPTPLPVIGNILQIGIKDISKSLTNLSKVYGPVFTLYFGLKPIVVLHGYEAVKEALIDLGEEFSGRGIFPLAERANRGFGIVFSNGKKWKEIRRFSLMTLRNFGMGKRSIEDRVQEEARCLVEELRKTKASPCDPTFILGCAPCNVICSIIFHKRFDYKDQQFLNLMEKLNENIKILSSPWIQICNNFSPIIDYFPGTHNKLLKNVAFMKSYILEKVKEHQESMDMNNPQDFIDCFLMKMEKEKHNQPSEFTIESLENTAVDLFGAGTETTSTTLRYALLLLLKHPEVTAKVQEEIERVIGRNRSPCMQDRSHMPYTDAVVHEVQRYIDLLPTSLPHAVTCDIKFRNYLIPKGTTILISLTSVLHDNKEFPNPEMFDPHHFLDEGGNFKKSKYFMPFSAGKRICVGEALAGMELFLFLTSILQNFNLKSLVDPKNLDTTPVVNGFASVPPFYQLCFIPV
PROPERTY MEASURED: Ki

Lab note: compound Cc1ccc2c(-c3nc(Nc4cc(CN5C[C@@H](C)N[C@@H](C)C5)cc(C5CC5)c4)ncc3Cl)c[nH]c2c1 [TUS, Tuspetinib] tested on CYP2C9 (Homo sapiens, UniProt P11712); recorded Ki was < 1 µM

* * *

- System: CYP3A
- PROTOCOL DESCRIPTION: CYP inhibition
- Format: in vitro ADME
- STATED CONDITIONS: human
PROPERTY MEASURED: Ki

Notebook: "Cc1ccc2c(-c3nc(Nc4cc(CN5C[C@@H](C)N[C@@H](C)C5)cc(C5CC5)c4)ncc3Cl)c[nH]c2c1" , Ki read as < 1000 nM

* * *

- PROTOCOL DESCRIPTION: Pharmacokinetics and tissue distribution in mice
- Assay type: in vivo
- STATED CONDITIONS: mouse, plasma; male mice, single intravenous dose of 3 mg/kg
PROPERTY MEASURED: clearance (mL/min/kg)
// units = mL/min/kg; emit number, no label

Notebook: "Cc1ccc2c(-c3nc(Nc4cc(CN5C[C@@H](C)N[C@@H](C)C5)cc(C5CC5)c4)ncc3Cl)c[nH]c2c1" , clearance read as 5

* * *

- TARGET OR TEST SYSTEM: UniProtKB P43405
- PROTOCOL DESCRIPTION: Broad kinase inhibition screen, recombinant kinase
- STATED CONDITIONS: broad kinase inhibition screens
PROPERTY MEASURED: IC50
Please state the number and follow it with the unit.

Lab note: compound Cc1ccc2c(-c3nc(Nc4cc(CN5C[C@@H](C)N[C@@H](C)C5)cc(C5CC5)c4)ncc3Cl)c[nH]c2c1 [TUS, Tuspetinib] tested on UniProtKB P43405; recorded IC50 was 2.9 nM

* * *

- Tested on: TUS/R line 3 (MOLM-14)
- PROTOCOL DESCRIPTION: Growth inhibition of TUS-resistant subline
- Format: cell-based, human
- STATED CONDITIONS: Homo sapiens, MOLM-14, read-out: GI50 (nM) TUS/R line 3; mean ± SEM (Supplementary Table 6)
Item-by-item account of GI50
// units = nM; emit number, no label

Look over these answered cases.
Cc1c2c(nn1C)CSCc1cc(n(C)n1)CSc1cc(c3ccccc3c1)OCCCc1c(C(=O)O)n(C)c3c-2c(Cl)ccc13 [AZD5991]: 22.8
Cc1ccc2c(-c3nc(Nc4cc(CN5C[C@@H](C)N[C@@H](C)C5)cc(C5CC5)c4)ncc3Cl)c[nH]c2c1 [TUS, Tuspetinib]: 108
Cn1c(=O)n(-c2ccc(C(C)(C)C#N)cc2)c2c3cc(-c4cnc5ccccc5c4)ccc3ncc21 [Dactolisib, dactolisib]: 28.9
CC(C)(C)c1cc(NC(=O)Nc2ccc(-c3cn4c(n3)sc3cc(OCCN5CCOCC5)ccc34)cc2)no1 [Quizartinib, quizartinib]: 0.2
CCc1nc(C(N)=O)c(Nc2ccc(N3CCC(N4CCN(C)CC4)CC3)c(OC)c2)nc1NC1CCOCC1 [Gilteritinib, gilteritinib]: 118

Now for a further molecule.
Notebook: CC(=O)Nc1cccc(-n2c(=O)n(C3CC3)c(=O)c3c(Nc4ccc(I)cc4F)n(C)c(=O)c(C)c32)c1 [Trametinib, trametinib] , GI50 read as 67
